All values here come from the supplement of paper PMC7669877.

# System: Candidatus Liberibacter solanacearum in potato hairy roots
# TEST SUMMARY: relative CLso titer (% of untreated control); higher = less inhibition of bacterial titer
# CONDITION SET: 10 µM; 72 h
Please provide measured relative CLso titer for the entries that follow.
Numeric answer only, unit % assumed.

Measured relative CLso titer, CNC(=C[N+](=O)[O-])NCCSCc1ccc(CN(C)C)o1 : 109

Lab note: COC(=O)C1=C(C)NC(C)=C(C(=O)OCCN(C)Cc2ccccc2)C1c1cccc([N+](=O)[O-])c1 (stereo not drawn) gave relative CLso titer of 121

Entry CCOc1ccc(Cc2cc([C@@H]3O[C@H](CO)[C@@H](O)[C@H](O)[C@H]3O)ccc2Cl)cc1 , relative CLso titer reported as 99

response.value for CC/C(=C(/CC)c1ccc(O)cc1)c1ccc(O)cc1 (field: relative CLso titer) = 94.4

Looking up CC1(C)OC(=O)NC1=O , I see its relative CLso titer listed as 65.8

# compound C[C@@H]1C[C@H]2[C@@H]3CCC4=CC(=O)C=C[C@]4(C)[C@@]3(F)[C@@H](O)C[C@]2(C)[C@@]1(O)C(=O)COP(=O)(O)O ; its relative CLso titer = 137

relative CLso titer reported for this compound O=C(O)Cc1ccccc1Nc1c(Cl)cccc1Cl : 151

So, O=C(O)c1cc(-c2ccc(F)cc2F)ccc1O ? Its relative CLso titer was 115

Entry under test: CN(CCOc1ccc(CC2SC(=O)NC2=O)cc1)c1ccccn1 (stereo not drawn) . Its relative CLso titer was 87.5

Kindly note the recorded relative CLso titer for Clc1ccc(COC(Cn2ccnc2)c2ccc(Cl)cc2Cl)cc1 (stereo not drawn) , which is 101

response.value for CC1=C(C(=O)O)N2C(=O)[C@@H](NC(=O)[C@H](N)c3ccc(O)cc3)[C@H]2SC1 (field: relative CLso titer) = 49.7

Value of relative CLso titer reported for the compound CC(=O)OCC(=O)[C@H]1CC[C@H]2[C@@H]3CCC4=CC(=O)CC[C@]4(C)[C@H]3CC[C@]12C is 104

Kindly note the recorded relative CLso titer for CCOC(=O)[C@H](CCc1ccccc1)N[C@@H](C)C(=O)N(CC(=O)O)C1Cc2ccccc2C1 , which is 90.7

Entry under test: Cn1c([N+](=O)[O-])cnc1COC(N)=O . Its relative CLso titer was 81.5

// field: relative CLso titer; key: CC[C@H]1OC(=O)[C@H](C)[C@@H](O[C@H]2C[C@@](C)(OC)[C@@H](O)[C@H](C)O2)[C@H](C)[C@@H](O[C@@H]2O[C@H](C)C[C@H](N(C)C)[C@H]2O)[C@](C)(O)C[C@@H](C)C(=O)[C@H](C)[C@@H](O)[C@]1(C)O ; value = 197

Form field relative CLso titer, entry CCC(=O)O[C@H]1[C@H](O[C@@H]2[C@@H](C)[C@H](O[C@H]3C[C@@](C)(OC)[C@@H](O)[C@H](C)O3)[C@@H](C)C(=O)O[C@H](CC)[C@@](C)(O)[C@H](O)[C@@H](C)C(=O)[C@H](C)C[C@@]2(C)O)O[C@H](C)C[C@@H]1N(C)C : 108

Input CC(=O)Oc1cc2c(s1)CCN(C(C(=O)C1CC1)c1ccccc1F)C2 (stereo not drawn) . Output relative CLso titer: 55.4

Item: Nc1ccc(C(=O)O)c(O)c1 | relative CLso titer: 73

###

# Test system: Candidatus Liberibacter solanacearum in potato hairy roots
# TEST SUMMARY: relative CLso titer (% of untreated control); higher = less inhibition of bacterial titer
# CONDITION SET: 10 µM; 72 h
So I've got a bunch of compounds here, and I need their relative CLso titer values.
// return numeric value only (unit: %, not printed)

The compound listed as CN(C)[C@@H]1C(O)=C(C(N)=O)C(=O)[C@@]2(O)C(O)=C3C(=O)c4c(O)ccc(Cl)c4[C@@](C)(O)[C@H]3C[C@@H]12 shows relative CLso titer equal to 35.8

Form field relative CLso titer, entry Cc1ccc(C(=O)Nc2ccc(S(=O)(=O)O)c3cc(S(=O)(=O)O)cc(S(=O)(=O)O)c23)cc1NC(=O)c1cccc(NC(=O)Nc2cccc(C(=O)Nc3cc(C(=O)Nc4ccc(S(=O)(=O)O)c5cc(S(=O)(=O)O)cc(S(=O)(=O)O)c45)ccc3C)c2)c1 : 141

Summary for this compound, CN(C)CCC=C1c2ccccc2COc2ccccc21 : relative CLso titer is 88.8

Summary for this compound, CO/N=C(\C(=O)N[C@@H]1C(=O)N2C(C(=O)O)=C(COC(C)=O)CS[C@H]12)c1csc(N)n1 : relative CLso titer is 68.6

Measured relative CLso titer of CN(C)c1cnccn1 : 120

Measured relative CLso titer, CO[C@@]12[C@H](COC(N)=O)C3=C(C(=O)C(C)=C(N)C3=O)N1C[C@@H]1N[C@@H]12 : 85

Looking up C[C@H]1O[C@@H](O[C@H]2[C@@H](O)C[C@H](O[C@H]3[C@@H](O)C[C@H](O[C@H]4CC[C@@]5(C)[C@H](CC[C@@H]6[C@@H]5CC[C@]5(C)[C@@H](C7=CC(=O)OC7)CC[C@]65O)C4)O[C@@H]3C)O[C@@H]2C)C[C@H](O)[C@@H]1O , I found its relative CLso titer recorded as 231

Value of measured relative CLso titer for the entry CC(=O)OCC(=O)[C@@]1(O)[C@H](C)C[C@H]2[C@@H]3CCC4=CC(=O)C=C[C@]4(C)[C@@]3(F)[C@@H](O)C[C@@]21C : 101

C[C@@H]1O[C@@H]1P(=O)(O)O has a reported relative CLso titer of 155

# compound CCCCOc1cc(C(=O)NCCN(CC)CC)c2ccccc2n1 ; its relative CLso titer = 147

Data point: OC[C@@H](O)[C@@H](O)[C@H](O)[C@H](O)CO ; relative CLso titer = 70.5

COC(=O)Nc1nc2cc(C(=O)c3cccs3)ccc2[nH]1 yielded relative CLso titer of 79.7

Entry CO[C@@]1(NC(=O)CSCC#N)C(=O)N2C(C(=O)O)=C(CSc3nnnn3C)CS[C@@H]21 ; relative CLso titer = 114

So for CC1=C(C(=O)O)N2C(=O)[C@@H](NC(=O)[C@H](N)C3=CCC=CC3)[C@H]2SC1 , the logged relative CLso titer turned out to be 114

relative CLso titer reported for this compound Clc1ccc(CSC(Cn2ccnc2)c2ccc(Cl)cc2Cl)cc1 (centres undefined) : 111

In plain terms, CCOC(=O)c1cccc(N)c1 has a documented relative CLso titer of 113

Data point: C[n+]1cc2c3c(ccc2c2ccc4cc5c(cc4c21)OCO5)OCO3 ; relative CLso titer = 86.7

Entry C[C@H]1O[C@@H](O[C@H]2[C@@H](O)C[C@H](O[C@H]3[C@@H](O)C[C@H](O[C@H]4CC[C@@]5(C)[C@H](CC[C@@H]6[C@@H]5C[C@@H](O)[C@]5(C)[C@@H](C7=CC(=O)OC7)CC[C@]65O)C4)O[C@@H]3C)O[C@@H]2C)C[C@H](O)[C@@H]1O , relative CLso titer reported as 86.7

In plain terms, C[C@@H]1C[C@H]2[C@@H]3C[C@H](F)C4=CC(=O)C=C[C@]4(C)[C@@]3(F)[C@@H](O)C[C@]2(C)[C@@]1(OC(=O)c1ccco1)C(=O)SCF has a documented relative CLso titer of 92.9

// field: relative CLso titer; key: CN(C)CCOC(C)(c1ccccc1)c1ccccn1 (centres undefined) ; value = 109

Entry Cc1cc(C2CCCCC2)n(O)c(=O)c1 ; relative CLso titer = 44.1

// relative CLso titer lookup, compound = CCCCNc1cc(C(=O)O)cc(S(N)(=O)=O)c1Oc1ccccc1 , result: 105

Reported relative CLso titer ( NS(=O)(=O)c1cc(C2(O)NC(=O)c3ccccc32)ccc1Cl (centres undefined) ) = 58.5

Briefly, relative CLso titer measured for O=C(O)P(=O)(O)O : 165
